Target: human muscarinic M1 receptor (Homo sapiens)
Sequence (P11229 1-460): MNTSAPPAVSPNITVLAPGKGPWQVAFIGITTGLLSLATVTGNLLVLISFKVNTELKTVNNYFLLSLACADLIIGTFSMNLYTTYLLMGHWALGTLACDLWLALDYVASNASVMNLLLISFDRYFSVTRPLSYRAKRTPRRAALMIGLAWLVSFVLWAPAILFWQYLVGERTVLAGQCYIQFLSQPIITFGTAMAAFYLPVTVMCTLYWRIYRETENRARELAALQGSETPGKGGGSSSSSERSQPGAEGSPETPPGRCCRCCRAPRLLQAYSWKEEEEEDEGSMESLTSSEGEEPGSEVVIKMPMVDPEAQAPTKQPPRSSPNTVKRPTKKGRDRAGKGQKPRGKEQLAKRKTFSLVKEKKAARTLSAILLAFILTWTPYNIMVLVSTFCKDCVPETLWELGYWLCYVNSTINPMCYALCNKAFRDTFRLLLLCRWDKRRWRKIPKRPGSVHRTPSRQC
Test: Alphascreen Surefire phospho-ERK1/2 functional assay, M1
Assay type: cell-based
Details: CHO, read-out: % Emax cf. ACh, M1, CHO cells stably expressing human M1, relative to ACh
# maps each entry to its Emax
measured metric: Emax (%)

{"columns": ["compound", "quantity unit", "test value"],
 "data": [
  ["CCOC(=O)N1C2CCC1CC(N1CCC3(CC1)CC(=O)NC3Cc1ccccc1)C2 (single isomer, unassigned) [Example 2-10 Isomer 1]", "%", 74],
  ["CCOC(=O)N1CC2CCC(C1)C2N1CCC2(CC1)CNC(=O)C2 (single isomer, unassigned) [Example 4-1 Isomer 2]", "%", 36],
  ["CSC(=O)N1C2CCC1CC(N1CCC3(CC1)CNC(=O)C3)C2 (single isomer, unassigned) [Example 2-34 Isomer 1]", "%", 50],
  ["CCOC(=O)N1CC2CC(N3CCC4(CC3)CNC(=O)O4)CC1C2 (single isomer, unassigned) [Example 6-3 Isomer 2]", "%", 112],
  ["CCOC(=O)N1C2CCC1CC(N1CCC3(CC1)CC(=O)N(CC1CC1)C3)C2 (single isomer, unassigned) [Example 2-28 Isomer 2]", "%", 57],
  ["COC(=O)N1C2CCC1CC(N1CCC3(CC1)CNC(=O)C3)C2 (single isomer, unassigned) [Example 2-1 Isomer 2]", "%", 72]
]}
